This collection of values is drawn from PubChem BioAssay AID2060884.

System: NCI-H929 complex spheroids, viability % test/control
test_summary: Anticancer human tumor NCI-H929 cell line growth inhibition [RAS];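 note: compound exposure lasted seven days before viability was read; 100% = DMSO vehicle control viability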
settings: second compound 3.16 µM; first compound 1 µM; stronger effect = lower value
# key: entry, value: viability, T/C
Write the answer as a number in %, unit excluded.

compound	viability, T/C / %
CC(C)NCC(C(=O)N1CCN(c2ncnc3c2C(C)CC3O)CC1)c1ccc(Cl)cc1 (centres undefined) + C#Cc1c(F)ccc2cc(O)cc(-c3ncc4c(N5CC6CCC(C5)N6)nc(OCC56CCCN5CC(F)C6)nc4c3F)c12	106
Cc1nc(N2CCC3(CC2)COC(C)C3N)c(CO)nc1Sc1ccnc(N)c1Cl (centres undefined) + C#Cc1c(F)ccc2cc(O)cc(-c3ncc4c(N5CC6CCC(C5)N6)nc(OCC56CCCN5CC(F)C6)nc4c3F)c12	101

Summary for this compound, C=CC(=O)N1CCN(c2nc(OCC3CCCN3C)nc3c(F)c(-c4nc(N)cc(C)c4C(F)(F)F)c(Cl)cc23)C(C)C1 (centres undefined) + C#Cc1c(F)ccc2cc(O)cc(-c3ncc4c(N5CC6CCC(C5)N6)nc(OCC56CCCN5CC(F)C6)nc4c3F)c12 : viability, T/C is 115

Summary for this compound, Nc1ccn(C2OC(CO)C(O)C2(F)F)c(=O)n1 (centres undefined) + C#Cc1c(F)ccc2cc(O)cc(-c3ncc4c(N5CC6CCC(C5)N6)nc(OCC56CCCN5CC(F)C6)nc4c3F)c12 : viability, T/C is 1.18

----------
# key: entry, value: viability, T/C
System: NCI-H929 complex spheroids, viability % test/control
test_summary: Anticancer human tumor NCI-H929 cell line growth inhibition [RAS];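 note: compound exposure lasted seven days before viability was read; 100% = DMSO vehicle control viability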
settings: second compound 0.3 µM; first compound 0.1 µM; stronger effect = lower value
Write the answer as a number in %, unit excluded.

compound	endpoint_unit	viability, T/C
C=CC(=O)Nc1cc(Nc2nccc(-c3cn(C)c4ccccc34)n2)c(OC)cc1N(C)CCN(C)C + CCn1c(-c2cccnc2C(C)OC)c2c3cc(ccc31)N1CCOC(CC(NC(=O)C(C(C)C)N(C)C(=O)C3(F)CCN(C(=O)C#CC(C)(C)N(C)C)CC3)C(=O)N3CCCC(N3)C(=O)OCC(C)(C)C2)C1	%	107
C=CC(=O)N1CCN(c2nc(OCC3CCCN3C)nc3c(F)c(-c4nc(N)cc(C)c4C(F)(F)F)c(Cl)cc23)C(C)C1 (stereo not drawn) + CCn1c(-c2cc(N3CCN(C)CC3)cnc2C(C)OC)c2c3cc(ccc31)-c1csc(n1)CC(NC(=O)C1CC1C)C(=O)N1CCCC(N1)C(=O)OCC(C)(C)C2	%	4.24
C=CC(=O)Nc1cc(Nc2nccc(-c3cn(C)c4ccccc34)n2)c(OC)cc1N(C)CCN(C)C + CCn1c(-c2cc(N3CCN(C)CC3)cnc2C(C)OC)c2c3cc(ccc31)-c1csc(n1)CC(NC(=O)C1CC1C)C(=O)N1CCCC(N1)C(=O)OCC(C)(C)C2	%	3.89
CCC(CC)c1cc(NC2CCC(N)C2)n2nccc2n1 (stereo not drawn) + CCn1c(-c2cc(N3CCN(C)CC3)cnc2C(C)OC)c2c3cc(ccc31)-c1csc(n1)CC(NC(=O)C1CC1C)C(=O)N1CCCC(N1)C(=O)OCC(C)(C)C2	%	3.76
Nc1ccn(C2OC(CO)C(O)C2(F)F)c(=O)n1 (stereo not drawn) + CCn1c(-c2cc(N3CCN(C)CC3)cnc2C(C)OC)c2c3cc(ccc31)-c1csc(n1)CC(NC(=O)C1CC1C)C(=O)N1CCCC(N1)C(=O)OCC(C)(C)C2	%	1.32

Summary for this compound, Cc1nc(N2CCC3(CC2)COC(C)C3N)c(CO)nc1Sc1ccnc(N)c1Cl (stereo not drawn) + CCn1c(-c2cc(N3CCN(C)CC3)cnc2C(C)OC)c2c3cc(ccc31)-c1csc(n1)CC(NC(=O)C1CC1C)C(=O)N1CCCC(N1)C(=O)OCC(C)(C)C2 : viability, T/C is 3.24

Summary for this compound, Nc1ccn(C2OC(CO)C(O)C2(F)F)c(=O)n1 (stereo not drawn) + CCn1c(-c2cccnc2C(C)OC)c2c3cc(ccc31)N1CCOC(CC(NC(=O)C(C(C)C)N(C)C(=O)C3(F)CCN(C(=O)C#CC(C)(C)N(C)C)CC3)C(=O)N3CCCC(N3)C(=O)OCC(C)(C)C2)C1 : viability, T/C is 0.96

Summary for this compound, CC(C)n1nc(-c2ccc3oc(N)nc3c2)c2c(N)ncnc21 + CCn1c(-c2cccnc2C(C)OC)c2c3cc(ccc31)N1CCOC(CC(NC(=O)C(C(C)C)N(C)C(=O)C3(F)CCN(C(=O)C#CC(C)(C)N(C)C)CC3)C(=O)N3CCCC(N3)C(=O)OCC(C)(C)C2)C1 : viability, T/C is 1.08
